B1: ZER1 (parent)
chain: PILRLLPQGISPVSQHWATWALYN

variants of: B1; experiment: protein stability index of a GFP-peptide fusion (GPS, HEK-293T) (PSI 1-6); higher = more stable; details: c terminus: a fixed tail appended;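 note: lentivirally expressed fusions sorted by FACS into six bins by GFP to DsRed ratio, PSI derived from sequencing read proportions per bin multiplied by bin number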
Short version: protein stability index at least 2 is Condition met, less is Condition not met.

Ask: Is protein stability index for L22K at or above 2?
Result: Condition not met

Ask: Hi team, for Q15M , is the recorded protein stability index at or above 2?
Result: Condition met

Ask: // inclusive: protein stability index at least 2? input: W17S
Result: Condition met

Ask: Determine whether this variant has protein stability index no lower than 2: W17E
Result: Condition met

Ask: Entry L5Y : is its protein stability index no less than 2?
Result: Condition not met

Ask: Determine whether measured protein stability index meets or exceeds 2 for Q8Y
Result: Condition met

Ask: Could you please find out whether L5C has protein stability index that meets 2 or exceeds it?
Result: Condition met

Ask: Please check the record P7H and state if its protein stability index is at or above 2.
Result: Condition met

Ask: Does Q8F have a reported protein stability index of at least 2?
Result: Condition met

Ask: Please indicate if the recorded protein stability index for L6P meets or exceeds 2.
Result: Condition met

Ask: Given the entry P7A , answer whether its protein stability index meets or surpasses 2.
Result: Condition met

Ask: Evaluate L5R : protein stability index at minimum 2?
Result: Condition not met

Ask: Hi, just wondering whether I10D shows protein stability index of 2 or higher.
Result: Condition not met

Ask: Entry A21W : is its protein stability index no less than 2?
Result: Condition met

Ask: // inclusive: protein stability index at least 2? input: L3D
Result: Condition met

Ask: Given H16R , state whether its protein stability index is at least 2.
Result: Condition met

Ask: Please check the record S14K and state if its protein stability index is at or above 2.
Result: Condition not met

Ask: hey, is protein stability index for this one >= 2? A21E
Result: Condition met

Ask: Is protein stability index for L5F at or above 2?
Result: Condition met

Ask: Quick check: does V13D have protein stability index greater than or equal to 2?
Result: Condition met

Ask: Could you tell me if the measured protein stability index of P12K reaches 2 or more?
Result: Condition met

Ask: Check this variant for protein stability index at or above 2: R4V
Result: Condition met

Ask: Could you verify whether the entry H16D shows protein stability index of no less than 2?
Result: Condition met

Ask: Does protein stability index meet or surpass 2 for A21C ?
Result: Condition met

Ask: Threshold query (protein stability index >= 2) on N24V
Result: Condition met

Ask: # bool: protein stability index of S14Q >= 2
Result: Condition met

Ask: Is protein stability index for S11A at or above 2?
Result: Condition met

Ask: Answer whether protein stability index of L22W is greater than or equal to 2.
Result: Condition met

Ask: # check: protein stability index of R4K is greater than or equal to 2
Result: Condition met
